- System: H929 human cancer cell lines
- Test Description: Cellular viability / proliferation (Cell TiterGlo, 72 h)
- Type: cell-based
- Measurement Setup: Homo sapiens, NCI-H929, 72 h, read-out: GI50 on cellular proliferation of H929 human cancer cell lines, H929 cells, 72 h, Cell TiterGlo, 10% FBS
Attribute: GI50
Readout Name: GI50

- Cc1cc(OCCCc2c3n(c4c(-c5c(C)nn(C)c5C)c(Cl)ccc24)[C@H](C)CN(c2cccc4cc(C(=O)O)n(CC5CC5)c24)C3=O)cc(C)c1Cl: 580 nM
- Cc1cc(OCCCc2c3n(c4c(-c5c(C)nn(C)c5C)c(Cl)ccc24)[C@H](C)CN(c2cccc4cc(C#N)n(C)c24)C3=O)cc(C)c1Cl: 5900 nM
- Cc1cc(OCCCc2c3n(c4c(-c5c(C)nn(C)c5C)c(Cl)ccc24)[C@H](C)CN(c2cc(Cl)cc4cc(C(=O)O)oc24)C3=O)cc(C)c1Cl: 4000 nM
- Cc1cc(OCCCc2c3n(c4c(-c5c(C)nn(C)c5C)c(Cl)ccc24)[C@H](C)CN(c2cc(NC(=O)CCN(C)C)cc4c(C(=O)O)cn(C)c24)C3=O)cc(C)c1Cl: 1700 nM
- Cc1cc(OCCCc2c3n(c4c(-c5c(C)nn(C)c5C)c(Cl)ccc24)[C@H](C)CN(c2cn(CC(N)=O)c4ccc(C(=O)O)cc24)C3=O)cc(C)c1Cl: 7600 nM
- Cc1cc(OCCCc2c3n(c4c(-c5c(C)nn(C)c5C)c(Cl)ccc24)[C@H](C)CN(c2cc(C(=O)N4CCN(C)CC4)cc4cc(C(=O)O)n(C)c24)C3=O)cc(C)c1Cl: 4400 nM
- COc1cc(N2C[C@@H](C)n3c(c(CCCOc4cc(C)c(Cl)c(C)c4)c4ccc(Cl)c(-c5c(C)nn(C)c5C)c43)C2=O)c2c(c1)c(C(=O)O)cn2Cc1ccccn1: 490 nM
- Cc1cc(OCCCc2c3n(c4c(-c5c(C)nn(C)c5C)c(Cl)ccc24)[C@H](C)CN(c2cc(OCCN4CCOCC4)cc4cc(C(=O)O)n(C)c24)C3=O)cc(C)c1Cl: 290 nM
- COc1cc(N2C[C@@H](C)n3c(c(CCCOc4cc(C)c(Cl)c(C)c4)c4ccc(Cl)c(-c5c(C)ncnc5C)c43)C2=O)c2c(c1)cc(C(=O)O)n2Cc1cccc(C)n1: 300 nM
- Cc1cc(N2C[C@@H](C)n3c(c(CCCOc4cc(C)c(Cl)c(C)c4)c4ccc(Cl)c(-c5c(C)nn(C)c5C)c43)C2=O)c2cc(C(=O)O)n(C)c2c1: 720 nM
- Cc1cc(OCCCc2c3n(c4c(-c5c(C)nn(C)c5C)c(Cl)ccc24)[C@H](C)CN(c2ccnc4c2cc(C(=O)O)n4C)C3=O)cc(C)c1Cl: 2600 nM

Data provenance is patent US11596639B2.
